# Lookup of reported composite z-score keyed by entry
# target desc: Fibroblast growth factor 10 (Homo sapiens) (UniProt O15520)
# Sequence (O15520 whole entry, looked up): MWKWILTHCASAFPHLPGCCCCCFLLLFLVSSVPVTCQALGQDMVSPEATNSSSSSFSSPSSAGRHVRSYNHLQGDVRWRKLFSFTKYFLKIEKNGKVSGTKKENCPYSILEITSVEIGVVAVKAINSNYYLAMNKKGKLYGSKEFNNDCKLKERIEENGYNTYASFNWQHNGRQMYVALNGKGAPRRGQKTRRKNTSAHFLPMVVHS
# method description: FGF10 binders on small-molecule microarrays, primary screen, biochemical, small-molecule microarray, 635 nm fluorescence (AID 1102)
# details: FGF10 binding, fluorescence 635 nm, higher = more signal
Just the number, please.

Example compounds with recorded composite z-score:
compound | numeric value
C#CCCCON=C1C[C@@H](O)[C@@H](O)[C@@H]2[C@@H]3C(=O)N(c4cccc(Oc5ccccc5)c4)C(=O)[C@@H]3CC[C@@H]12 | 0.985
COc1cccc([C@H]2Oc3ccc(OC)cc3C(=NO[C@H](C)c3cn([C@@H]4COC[C@H]4O)nn3)[C@@H]2O)c1 | -0.481

Could you now consider this next compound?
input: Dear colleague, I am looking for the recorded composite z-score of the following compound: `C=C(/C(=C/C[C@H](OC(C)=O)c1ccc(OCCO)cc1)c1cnc2ccccc2c1)C(C)C`
output: 1.49

* * *

# method description: binders of probe aHhip on microarray, primary screen, stem cell growth factor project, biochemical, small-molecule microarray, fluorescence 635/667 (AID 1087);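 note: score merges spot fluorescence at 667nm with spot signal to noise ratio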
# details: higher = more signal
composite z-score reference
Respond with the number and no other words.

Sample records with composite z-score:
compound | composite z-score
CCN1C(=O)[C@H]2[C@H]3[C@H](O)[C@H](O)CC(=NO[C@@H]4O[C@H](CO)[C@@H](O)[C@H](O)[C@H]4O)[C@@H]3CC[C@H]2C1=O | 0.354
CCCC[C@@H](O)C1=C(C)C[C@H]2C(=O)N(Cc3ccccc3)C(=O)[C@H]2[C@H]1CO | -0.0237

input: Recorded composite z-score of `O=C1C2=CC[C@H]3C(=O)N(Cc4ccc5c(c4)OCO5)C(=O)[C@H]3[C@H]2[C@H](O)[C@@H]2O[C@H]12` , please.
output: -0.308

input: Name the reported composite z-score value associated with the compound `COc1ccc(O[C@H]2C=C[C@@H](c3ccccc3)O[C@@H]2COC(=O)N2CCCCC2)cc1`
output: -0.171

input: # lookup: composite z-score of `O=C1[C@H]2[C@H]3[C@H](O)[C@H](O)CC(=NO[C@@H]4O[C@H](CO)[C@@H](O)[C@H](O)[C@H]4O)[C@@H]3CC[C@H]2C(=O)N1Cc1ccccc1`
output: -0.0994

input: What does the data say about its composite z-score? Entry: COC(=O)[C@@H]1CC[C@H](C)[C@@H](c2ccc(C)cc2)N1C(=O)c1ccc(C=NOC(C)CN2CCCCc3nc(C)c(C)cc32)cc1 (stereo partly specified)
output: 0.226

* * *

Listed here: items and their measured z-score.
# method description: cell viability in Huh7 cells, primary screen, cytotoxicity control for HCV replication inhibitor project, CellTiter-Glo luminescence, basal, 48 h (AID 1143);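 note: Huh7 hepatoma cells carrying a hepatitis C replication reporter with no stimulus; test concentration not given here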
# details: Huh7 HCV replicon, higher = more signal, called active from +8 up or from −8 down
Answer as a number with no unit attached.

# example entries with known answers
entry smiles | numeric value
C[C@@H]1C=CCC(=O)OC[C@H](C)C(=O)OC[C@H]2O[C@H]1C=C[C@H]2O | 0.196
COc1ccc([Si](C)(C)[C@@H]2[C@@H](CC(=O)N3CCC[C@H]3CO)O[C@]3(C(=O)N(Cc4cccc(N5CCC5=O)c4)c4ccccc43)[C@H]2C)cc1 | -3.38

input: Entry `CCOC(=O)CCN1C(=O)[C@H]2[C@H]3[C@H](O)[C@H](O)CC(=O)[C@H]3CC[C@H]2C1=O` : reported z-score = ?
output: -3.04
